Assay: Minimum inhibitory concentration against […] ATCC 13813
Format: functional
Settings: Streptococcus agalactiae
assay.endpoint: MIC

NC(=S)NC[C@H]1CN(c2ccc(N3CCN(c4ccccn4)CC3)c(F)c2)C(=O)O1; 0.12 µg/mL
NC(=S)NC[C@H]1CN(c2ccc(N3CCN(c4ccccc4)CC3)cc2)C(=O)O1; 0.25 µg/mL
CC(=S)NC[C@H]1CN(c2ccc(N3CCN(c4ccccc4C)CC3)c(F)c2)C(=O)O1; 0.12 µg/mL

input: Item under review: `CC(=S)NC[C@H]1CN(c2ccc(N3CCN(c4ccccc4Cl)CC3)c(F)c2)C(=O)O1` . Reported MIC?
output: 0.12 µg/mL

input: Request: `O=C1O[C@@H](COc2ccccn2)CN1c1ccc(N2CCN(c3ccccc3Cl)CC2)c(F)c1`
output: > 64 µg/mL

---

Attribute: MIC
Test: Minimum inhibitory concentration against […] ATCC 13813
Type: functional
Settings: Streptococcus agalactiae
# unit: µg/mL | format: bare number

NC(=S)NC[C@H]1CN(c2ccc(N3CCN(c4ccc(Cl)cc4)CC3)c(F)c2)C(=O)O1; 0.12

input: Item under review: `CC(=O)NC[C@H]1CN(c2ccc(N3CCOCC3)c(F)c2)C(=O)O1` . Reported MIC?
output: 0.5

input: Request: `CC(=S)NC[C@H]1CN(c2ccc(N3CCN(c4ccccc4)CC3)c(F)c2)C(=O)O1`
output: 0.12

input: Request: `NC(=S)NC[C@H]1CN(c2ccc(N3CCN(c4ccccc4Cl)CC3)cc2)C(=O)O1`
output: 0.06

---

System: Staphylococcus aureus
Test: Antibacterial activity against Staphylococcus aureus was evaluated in infected mice
Format: functional
Attribute: ED50

Some solved entries appear below for comparison.
CC(=O)NC[C@H]1CN(c2ccc(N3CCOCC3)c(F)c2)C(=O)O1; 4 mg/kg
CSC(=S)NC[C@H]1CN(c2ccc(N3CCN(c4ccccn4)CC3)c(F)c2)C(=O)O1; > 16 mg/kg

input: Item under review: `CC(=S)NC[C@H]1CN(c2ccc(N3CCN(c4cccc(Cl)c4)CC3)c(F)c2)C(=O)O1` . Reported ED50?
output: > 16 mg/kg
